- test context: PAMPA
Where a SMILES comes first, the peptide text is derived from it. [ ]: non-standard residue; d: D form. NMeF = CN[C@@H](Cc1ccccc1)C(=O)O; dNMeF = CN[C@H](Cc1ccccc1)C(=O)O; NMeL = CN[C@@H](CC(C)C)C(=O)O; dNMeL = CN[C@H](CC(C)C)C(=O)O; NMeA = CN[C@@H](C)C(=O)O; dNMeA = CN[C@H](C)C(=O)O; Sar = CNCC(=O)O
observation type: PAMPA_R3

Worked examples follow.
| compound | PAMPA_R3 |
| --- | --- |
| CC(C)C[C@@H]1NC(=O)[C@@H](CC(C)C)N(C)C(=O)[C@@H]2CCCN2C(=O)[C@H](CC(C)C)N(C)C(=O)[C@@H](C)NC(=O)[C@@H](CC(C)C)N(C)C(=O)[C@@H]2CCCN2C(=O)[C@@H](CC(C)C)N(C)C(=O)[C@H](CC(C)C)N(C)C(=O)[C@H](Cc2ccccc2)NC1=O [Design D10.21] (cyclo(F[NMeL][dNMeL]P[dNMeL][dA][NMeL]P[dNMeL]L)) | BQL |
| CC[C@H](C)[C@@H]1NC(=O)[C@@H](Cc2ccccc2)NC(=O)[C@@H](C)NC(=O)[C@@H](C(C)C)NC(=O)[C@H](CCSC)NC(=O)[C@@H]2CCCN2C(=O)[C@H]2CCCN2C(=O)[C@@H]2CCCN2C(=O)[C@@H](C)N(C)C(=O)[C@@H](CC(C)C)N(C)C1=O [Design D10.45] (cyclo(M[dV][dA][dF]I[dNMeL][dNMeA]P[dP]P)) | 3.72E-07 |
| CC[C@H](C)[C@@H]1NC(=O)[C@@H](CC(C)C)NC(=O)[C@H](CC(C)C)NC(=O)[C@H]2CCCN2C(=O)[C@@H]2CCCN2C(=O)[C@H](C)NC(=O)[C@H](Cc2ccccc2)N(C)C(=O)[C@@H](C(C)C)NC(=O)[C@H](Cc2ccccc2)N(C)C(=O)[C@@H](Cc2ccccc2)N(C)C1=O [Design D10.51] (cyclo(AP[dP]L[dL]I[dNMeF][NMeF][dV][NMeF])) | BQL |
| CC[C@@H](C)[C@H]1NC(=O)[C@@H]2CCCN2C(=O)[C@@H]([C@H](C)CC)NC(=O)CN(C)C(=O)[C@H](CC(C)C)NC(=O)[C@@H](Cc2ccccc2)NC(=O)[C@H](CC(C)C)N(C)C(=O)[C@H]2CCCN2C(=O)[C@@H](CC(C)C)NC(=O)[C@H](CC(C)C)NC(=O)[C@H]2CCCN2C1=O [Design D11.2] (cyclo(L[Sar][dI]P[dI][dP]L[dL][dP][NMeL][dF])) | 2.50E-06 |
| CC[C@H](C)[C@@H]1NC(=O)[C@@H]2CCCN2C(=O)[C@H](C)NC(=O)[C@@H](Cc2ccccc2)N(C)C(=O)[C@H](C)NC(=O)[C@@H]2CCCN2C(=O)[C@@H](Cc2ccccc2)N(C)C(=O)[C@H](Cc2ccccc2)N(C)C(=O)[C@H](CC(C)C)N(C)C(=O)[C@@H](C(C)C)NC1=O [Design D10.52] (cyclo(API[dV][NMeL][NMeF][dNMeF]PA[dNMeF])) | BQL |

Entry CC(C)C[C@@H]1NC(=O)[C@H](CC(C)C)NC(=O)[C@H](C(C)C)NC(=O)[C@H](C)NC(=O)[C@@H]2CCCN2C(=O)[C@H]2CCCN2C(=O)[C@@H]2CCCN2C(=O)[C@H](C)N(C)C(=O)[C@@H](CC(C)C)N(C)C(=O)[C@@H]2CCCN2C(=O)[C@H](Cc2ccccc2)NC1=O [Design D11.7] (cyclo(AVLLFP[dNMeL][NMeA]P[dP]P)) has what PAMPA_R3? BQL

###

- test context: PAMPA
Where a SMILES comes first, the peptide text is derived from it. [ ]: non-standard residue; d: D form. dNMeL = CN[C@H](CC(C)C)C(=O)O; Nle = CCCC[C@H](N)C(=O)O; dNMeA = CN[C@H](C)C(=O)O
observation type: PAMPA_Papp_Avg
# answer = number (no unit)

Entry CCCC[C@@H]1NC(=O)[C@H](C(C)C)NC(=O)[C@H]2CCCN2C(=O)[C@@H]2CCCN2C(=O)[C@H](C)NC(=O)[C@@H](C)N(C)C(=O)[C@@H](CC(C)C)N(C)C(=O)[C@@H](C(C)C)NC(=O)[C@@H]2CCCN2C1=O [Design D9.21] (cyclo(AP[dP]V[Nle]P[dV][dNMeL][dNMeA])) has what PAMPA_Papp_Avg? 2.94E-07

###

- protocol notes: Pharmacokinetics and oral bioavailability of D8.3.p1 and D10.1 in Balb/C female mice (PO, SQ, IV)
- Format: in vivo
- test context: female, Balb/C, mouse, plasma, sc, 12.2 mg/kg, D10.1 SQ 12.2 mg/kg, 1440 min, individual mice M1, M2, M3; read-out: Plasma level
observation type: level at time molar at 24 h (nM)
Entry rule: numbers only, all in nM.

Entry CC[C@H](C)[C@@H]1NC(=O)[C@@H](CC(C)C)NC(=O)[C@H](CC(C)C)N(C)C(=O)[C@H](Cc2ccccc2)NC(=O)CN(C)C(=O)[C@@H]2CCCN2C(=O)[C@H](C(C)C)NC(=O)[C@H](Cc2ccccc2)N(C)C(=O)[C@H]2CCCN2C(=O)[C@H](CC(C)C)NC1=O has what level at time molar at 24 h? 30

###

- protocol notes: Pharmacokinetics and oral bioavailability of D11.2 in male SD rats (IV, PO, SQ)
- Type: in vivo
- test context: male, Sprague Dawley, rat, plasma, subcutaneous, 1 mg/kg, SQ 1 mg/kg, individual rats R7, R8, R9; read-out: Tmax
Where a SMILES comes first, the peptide text is derived from it. [ ]: non-standard residue; d: D form. NMeL = CN[C@@H](CC(C)C)C(=O)O; Sar = CNCC(=O)O
observation type: Tmax (h)
Entry rule: numbers only, all in h.

Entry CC[C@@H](C)[C@H]1NC(=O)[C@@H]2CCCN2C(=O)[C@@H]([C@H](C)CC)NC(=O)CN(C)C(=O)[C@H](CC(C)C)NC(=O)[C@@H](Cc2ccccc2)NC(=O)[C@H](CC(C)C)N(C)C(=O)[C@H]2CCCN2C(=O)[C@@H](CC(C)C)NC(=O)[C@H](CC(C)C)NC(=O)[C@H]2CCCN2C1=O [Design D11.2] (cyclo(L[Sar][dI]P[dI][dP]L[dL][dP][NMeL][dF])) has what Tmax? 4

###

- protocol notes: in vitro
- test context: PAMPA, PAMPA_Papp_Avg
Where a SMILES comes first, the peptide text is derived from it. [ ]: non-standard residue; d: D form. dNMeL = CN[C@H](CC(C)C)C(=O)O; Aib = CC(C)(N)C(=O)O
Below, each entry is listed with its recorded Papp.
Entry rule: numbers only, all in nm/s.

| compound | observation type | val |
| --- | --- | --- |
| CC[C@@H](C)[C@H]1NC(=O)[C@@H](CC(C)C)NC(=O)C(C)(C)NC(=O)[C@@H]2CCCN2C(=O)[C@@H]([C@H](C)CC)NC(=O)[C@@H](CC(C)C)NC(=O)C(C)(C)NC(=O)[C@@H]2CCCN2C1=O [Design D8.2, PRO AIB DLEU DILE PRO AIB DLEU DILE] (cyclo([Aib][dL][dI]P[Aib][dL][dI]P)) | Papp | 74.9 |

Now for a further compound.
Entry CC(C)C[C@@H]1C(=O)N[C@H](C)C(=O)N(C)[C@H](CC(C)C)C(=O)N2CCC[C@@H]2C(=O)N[C@H](CC(C)C)C(=O)N[C@@H](C)C(=O)N[C@H](CC(C)C)C(=O)N2CCC[C@@H]2C(=O)N1C [Design D8.25, DLEU DPRO *DLEU DALA *DLEU DPRO DLEU ALA] (cyclo(A[dL][dP][dNMeL][dA][dNMeL][dP][dL])) has what Papp? 8.24

###

- protocol notes: Pharmacokinetics and oral bioavailability of D11.3 in male Swiss albino mice (IV, PO, SQ)
- Assay type: in vivo
- test context: mouse, in vivo; PO 10.00 mg/kg; read-out: MRT0-last
Where a SMILES comes first, the peptide text is derived from it. [ ]: non-standard residue; d: D form. dNMeI = CC[C@@H](C)[C@@H](NC)C(=O)O; NMeL = CN[C@@H](CC(C)C)C(=O)O
observation type: MRT last (h)
Entry rule: numbers only, all in h.

Entry CC[C@@H](C)[C@H]1NC(=O)[C@H]([C@@H](C)CC)NC(=O)[C@H](CC(C)C)N(C)C(=O)[C@H]2CCCN2C(=O)[C@@H]([C@H](C)CC)NC(=O)[C@@H]([C@H](C)CC)N(C)C(=O)[C@H](CC(C)C)NC(=O)[C@H]2CCCN2C(=O)[C@@H]2CCCN2C(=O)[C@H](C(C)C)NC(=O)[C@H]2CCCN2C1=O [Design D11.3] (cyclo(I[dI][dP]VP[dP]L[dNMeI][dI][dP][NMeL])) has what MRT last? 6.32
